The measurements presented in this section are drawn from PubChem BioAssay AID1259407.

- System: CCRIS mutagenicity, Ames/micronucleus/aberration tests
- assay.summary: CCRIS mutagenicity studies
- test.context: Test System: AMES SALMONELLA TYPHIMURIUM; Strain/Indicator: TA98(NR); Metabolic Activation: NONE; Method: PREINCUBATION
Activity calls are given as the source filed them. The rule behind the calls is not given here.

| smiles.text | mutagenic call |
| --- | --- |
| O=[N+]([O-])c1ccc2c3c1ccc1cccc(c13)[C@@H]1O[C@H]21 | active; positive |
| O=[N+]([O-])c1ccc(I)c([N+](=O)[O-])c1 | active; positive |
| CC(=O)Nc1ccc(Oc2ccc(NO)cc2)cc1 | active; positive |
